Sourced from BigSolDB 2.1

details: in 1,2-dichloroethane, 283.15 K
REPORTED METRIC: solubility (mole fraction)

Quick one: solubility (mole fraction) for "O=C1CCCCCCCCCCC1" ?
0.394

====

details: in methanol, 293.15 K
REPORTED METRIC: solubility (mole fraction)
Write no unit; give the number alone.

Please look up its solubility (mole fraction): "O=C1CCCCCCCCCCC1"
0.0679

====

settings: in cyclohexane, 283.15 K
REPORTED METRIC: solubility (mole fraction)
Lab note: jot down the number only; don't add units.

Given the compound "O=C1CCCCCCCCCCC1" , what is its reported solubility (mole fraction)?
0.21

====

conditions: in ethyl acetate, 283.15 K
REPORTED METRIC: solubility (mole fraction)
Just the number, please.

// returns reported solubility (mole fraction) for input "O=C1CCCCCCCCCCC1"
0.235

====

conditions: in isopropanol, 283.15 K
REPORTED METRIC: solubility (mole fraction)
Give your answer as a number; write no unit.

Please look up its solubility (mole fraction): "O=C1CCCCCCCCCCC1"
0.122

====

details: in n-propanol, 283.15 K
REPORTED METRIC: solubility (mole fraction)
Number only, please.

Report solubility (mole fraction) for "O=C1CCCCCCCCCCC1" please.
0.144

====

conditions: in acetone, 298.15 K
REPORTED METRIC: solubility (mole fraction)
I only need the number, thanks.

Quick one: solubility (mole fraction) of "O=C1CCCCCCCCCCC1" ?
0.362

====

conditions: in methanol, 278.15 K
REPORTED METRIC: solubility (mole fraction)
Answer as a number with no unit attached.

# solubility (mole fraction) lookup, item "O=C1CCCCCCCCCCC1"
0.0155

====

conditions: in isobutanol, 298.15 K
REPORTED METRIC: solubility (mole fraction)

# input molecule: "O=C1CCCCCCCCCCC1" ; wanted: its solubility (mole fraction)
0.261

====

conditions: in methanol, 308.15 K
REPORTED METRIC: solubility (mole fraction)

# get_value(readout='solubility (mole fraction)', item= "O=C1CCCCCCCCCCC1" )
0.272

====

settings: in ethanol, 303.15 K
REPORTED METRIC: solubility (mole fraction)
Answer with a bare number; do not write a unit.

Need solubility (mole fraction), item "O=C1CCCCCCCCCCC1"
0.243

====

conditions: in n-butanol, 313.15 K
REPORTED METRIC: solubility (mole fraction)
Respond with the number and no other words.

Dear colleague, I am looking for the recorded solubility (mole fraction) of the following molecule: "O=C1CCCCCCCCCCC1"
0.527

====

details: in toluene, 303.15 K
REPORTED METRIC: solubility (mole fraction)
Keep the answer to the number alone.

If you can, please state the reported solubility (mole fraction) value of "O=C1CCCCCCCCCCC1" .
0.553

====

conditions: in toluene, 278.15 K
REPORTED METRIC: solubility (mole fraction)

Requested read-out: solubility (mole fraction). Entry: "O=C1CCCCCCCCCCC1"
0.33

====

settings: in n-propanol, 288.15 K
REPORTED METRIC: solubility (mole fraction)
# print the numeric value only

# solubility (mole fraction) lookup, item "O=C1CCCCCCCCCCC1"
0.182

====

conditions: in 1,2-dichloroethane, 298.15 K
REPORTED METRIC: solubility (mole fraction)
Reply with just the number.

Sample "O=C1CCCCCCCCCCC1" — what was its solubility (mole fraction)?
0.511

====

conditions: in n-propanol, 298.15 K
REPORTED METRIC: solubility (mole fraction)
Form rule: numeric answer, no unit written next to it.

Quick check: solubility (mole fraction) of "O=C1CCCCCCCCCCC1" ?
0.293

====

conditions: in n-propanol, 278.15 K
REPORTED METRIC: solubility (mole fraction)
Write no unit; give the number alone.

Which solubility (mole fraction) is listed for "O=C1CCCCCCCCCCC1" ?
0.118

====

conditions: in toluene, 288.15 K
REPORTED METRIC: solubility (mole fraction)
Answer using only a numeral; do not append any unit.

Recorded solubility (mole fraction) of "O=C1CCCCCCCCCCC1" , please.
0.41

====

conditions: in ethanol, 278.15 K
REPORTED METRIC: solubility (mole fraction)
Lab note: write the figure by itself, no unit.

Name the recorded solubility (mole fraction) for "O=C1CCCCCCCCCCC1" .
0.0472

====

conditions: in methanol, 303.15 K
REPORTED METRIC: solubility (mole fraction)
# output: bare number, no unit

What solubility (mole fraction) value was documented for this molecule, "O=C1CCCCCCCCCCC1" ?
0.166

====

conditions: in cyclohexane, 293.15 K
REPORTED METRIC: solubility (mole fraction)
// no unit string in output, number only

Entry "O=C1CCCCCCCCCCC1" has what solubility (mole fraction)?
0.308

====

conditions: in isopropanol, 298.15 K
REPORTED METRIC: solubility (mole fraction)
Answer using only a numeral; do not append any unit.

For "O=C1CCCCCCCCCCC1" , what is its reported solubility (mole fraction)?
0.262

====

details: in cyclohexane, 308.15 K
REPORTED METRIC: solubility (mole fraction)
API doc: respond with a numeric literal and nothing else, no unit.

Any idea what solubility (mole fraction) was measured for "O=C1CCCCCCCCCCC1" ?
0.515

====

details: in isobutanol, 313.15 K
REPORTED METRIC: solubility (mole fraction)
API doc: respond with a numeric literal and nothing else, no unit.

Given the compound "O=C1CCCCCCCCCCC1" , what is its reported solubility (mole fraction)?
0.54

====

conditions: in n-propanol, 308.15 K
REPORTED METRIC: solubility (mole fraction)

Field request: solubility (mole fraction) | item: "O=C1CCCCCCCCCCC1"
0.467

====

details: in n-butanol, 298.15 K
REPORTED METRIC: solubility (mole fraction)

For the compound shown here, "O=C1CCCCCCCCCCC1" , give the reported solubility (mole fraction).
0.258

====

details: in acetonitrile, 308.15 K
REPORTED METRIC: solubility (mole fraction)
I'd appreciate a reply containing only the number, no unit.

// lookup solubility (mole fraction) for "O=C1CCCCCCCCCCC1"
0.466

====

conditions: in n-butanol, 308.15 K
REPORTED METRIC: solubility (mole fraction)
The reply should be a number, written without any unit.

Can you look up the measured solubility (mole fraction) of "O=C1CCCCCCCCCCC1" for me?
0.415

====

details: in acetonitrile, 283.15 K
REPORTED METRIC: solubility (mole fraction)
No unit in the answer, only the number.

Need solubility (mole fraction), item "O=C1CCCCCCCCCCC1"
0.0711

====

conditions: in methanol, 288.15 K
REPORTED METRIC: solubility (mole fraction)
Answer as a number with no unit attached.

Consider the compound "O=C1CCCCCCCCCCC1" and give its measured solubility (mole fraction).
0.04

====

settings: in ethyl acetate, 308.15 K
REPORTED METRIC: solubility (mole fraction)

Which value of solubility (mole fraction) has been reported for "O=C1CCCCCCCCCCC1" in the records?
0.553

====

conditions: in acetone, 293.15 K
REPORTED METRIC: solubility (mole fraction)
Would you mind answering with just the numeric figure?

Consider the compound shown here: "O=C1CCCCCCCCCCC1" What is its recorded solubility (mole fraction)?
0.285

====

settings: in ethyl acetate, 288.15 K
REPORTED METRIC: solubility (mole fraction)
Could you keep your reply to the number by itself?

Look up solubility (mole fraction) for this compound: "O=C1CCCCCCCCCCC1"
0.286

====

settings: in isopropanol, 278.15 K
REPORTED METRIC: solubility (mole fraction)

Need solubility (mole fraction) of "O=C1CCCCCCCCCCC1" , thanks.
0.0967

====

conditions: in 1,2-dichloroethane, 293.15 K
REPORTED METRIC: solubility (mole fraction)
Field format: numeric only.

Consider the compound "O=C1CCCCCCCCCCC1" and give its measured solubility (mole fraction).
0.459

====

settings: in isopropanol, 308.15 K
REPORTED METRIC: solubility (mole fraction)
Please give the numeric answer without any surrounding text.

Dear colleague, I am looking for the recorded solubility (mole fraction) of the following compound: "O=C1CCCCCCCCCCC1"
0.445

====

conditions: in cyclohexane, 288.15 K
REPORTED METRIC: solubility (mole fraction)
Please state the value as a number alone, without comment.

// query solubility (mole fraction) value for entry "O=C1CCCCCCCCCCC1"
0.263

====

settings: in ethanol, 298.15 K
REPORTED METRIC: solubility (mole fraction)

Endpoint output: solubility (mole fraction) of "O=C1CCCCCCCCCCC1" . Value?
0.183

====

details: in ethanol, 283.15 K
REPORTED METRIC: solubility (mole fraction)
Answer as a number with no unit attached.

solubility (mole fraction) lookup needed for "O=C1CCCCCCCCCCC1" , thanks.
0.0701

====

settings: in cyclohexane, 303.15 K
REPORTED METRIC: solubility (mole fraction)
Give the figure by itself; no unit, no explanation.

Quick one: solubility (mole fraction) of "O=C1CCCCCCCCCCC1" ?
0.441
